# Test system: HCI-010 (organoid from a breast cancer xenograft)
# EXPERIMENT: CTG-3D luminescence at 96 h relative to day-0 seeding control (ratio to day 0); higher = more growth / less cytotoxicity; PDxO 3D drug screen, 96 h, CTG-3D normalised to day-0 seeding control.
# PARTICULARS: 625 fM; days in culture: 52
OUTCOME_MEASURE: CTG-3D luminescence at 96 h

[in] Lab note: need CTG-3D luminescence at 96 h for "CC(C)(C(=O)NCC(F)(F)C(F)(F)F)C(=O)N[C@@H]1C(=O)Nc2ccccc2-c2ccccc21" on HCI-010, anyone have it?
[out] 2.2

[in] CCN1CCN(Cc2ccc(Nc3ncc(F)c(-c4cc(F)c5nc(C)n(C(C)C)c5c4)n3)nc2)CC1 [abemaciclib] ?
[out] 2.09

[in] Likewise for CS(=O)(=O)c1ccc(C(=O)Nc2ccc(Cl)c(-c3ccccn3)c2)c(Cl)c1 [vismodegib] ?
[out] 1.78

[in] Further, for "CCN(c1cc(C#CCN2CCOCC2)cc(C(=O)NCc2c(C)cc(C)[nH]c2=O)c1C)[C@H]1CC[C@H](N(C)CCOC)CC1" ?
[out] 2.03

###

# Tested on: HCI-012 (organoid from a breast cancer xenograft)
# EXPERIMENT: CTG-3D luminescence at 96 h relative to day-0 seeding control (ratio to day 0); higher = more growth / less cytotoxicity; PDxO 3D drug screen, 96 h, CTG-3D normalised to day-0 seeding control.
# PARTICULARS: 0.005 µM; days in culture: 162
OUTCOME_MEASURE: CTG-3D luminescence at 96 h
// keep it numeric: no unit symbol after the value

[in] Sample "C=CCn1c(=O)c2cnc(Nc3ccc(N4CCN(C)CC4)cc3)nc2n1-c1cccc(C(C)(C)O)n1" — what was its CTG-3D luminescence at 96 h?
[out] 2.02

[in] Then "C/C=C1\NC(=O)[C@H]2CSSCC/C=C/[C@H](CC(=O)N[C@H](C(C)C)C(=O)N2)OC(=O)[C@H](C(C)C)NC1=O" ?
[out] 0.53

[in] Next record, please: "Cc1nc(-c2cn3c(n2)-c2ccc(-c4cnn(C(C)(C)C(N)=O)c4)cc2OCC3)n(C(C)C)n1"
[out] 1.72

[in] Thanks! And "COc1cccc2c1C(=O)c1c(O)c3c(c(O)c1C2=O)C[C@@](O)(C(=O)CO)C[C@@H]3O[C@H]1C[C@H](N)[C@H](O)[C@H](C)O1" ?
[out] 2.04

###

# System: HCI-012
# EXPERIMENT: CTG-3D luminescence at 96 h relative to day-0 seeding control (ratio to day 0); higher = more growth / less cytotoxicity; PDxO 3D drug screen, 96 h, CTG-3D normalised to day-0 seeding control.
# PARTICULARS: 0.1 µM; days in culture: 201
Kindly state CTG-3D luminescence at 96 h for each of the entries shown.
Answer with a number only.

[in] Could you tell me which CTG-3D luminescence at 96 h is on file for "Nc1ccn([C@@H]2O[C@H](CO)[C@@H](O)C2(F)F)c(=O)n1" ?
[out] 0.0613

[in] Thanks! And "CCN1CCN(Cc2ccc(Nc3ncc(F)c(-c4cc(F)c5nc(C)n(C(C)C)c5c4)n3)nc2)CC1" ?
[out] 1.73

[in] // same read-out, input: "CC(=O)O[C@H]1C(=O)[C@@]2(C)[C@H]([C@H](OC(=O)c3ccccc3)[C@]3(O)C[C@H](OC(=O)[C@H](O)[C@@H](NC(=O)c4ccccc4)c4ccccc4)C(C)=C1C3(C)C)[C@]1(OC(C)=O)CO[C@@H]1C[C@@H]2O"
[out] 0.241

[in] Note, next up: "NC1(C(=O)N[C@@H](CCO)c2ccc(Cl)cc2)CCN(c2nc[nH]c3nccc2-3)CC1"
[out] 1.5

[in] Quick one: "Cc1cc(Nc2ncc(Cl)c(Nc3ccccc3S(=O)(=O)C(C)C)n2)c(OC(C)C)cc1C1CCNCC1"
[out] 1.57
